# TARGET_DESC: Dm5-HT2B (Drosophila melanogaster)
# Sequence (Q8INQ6 entry or part of it): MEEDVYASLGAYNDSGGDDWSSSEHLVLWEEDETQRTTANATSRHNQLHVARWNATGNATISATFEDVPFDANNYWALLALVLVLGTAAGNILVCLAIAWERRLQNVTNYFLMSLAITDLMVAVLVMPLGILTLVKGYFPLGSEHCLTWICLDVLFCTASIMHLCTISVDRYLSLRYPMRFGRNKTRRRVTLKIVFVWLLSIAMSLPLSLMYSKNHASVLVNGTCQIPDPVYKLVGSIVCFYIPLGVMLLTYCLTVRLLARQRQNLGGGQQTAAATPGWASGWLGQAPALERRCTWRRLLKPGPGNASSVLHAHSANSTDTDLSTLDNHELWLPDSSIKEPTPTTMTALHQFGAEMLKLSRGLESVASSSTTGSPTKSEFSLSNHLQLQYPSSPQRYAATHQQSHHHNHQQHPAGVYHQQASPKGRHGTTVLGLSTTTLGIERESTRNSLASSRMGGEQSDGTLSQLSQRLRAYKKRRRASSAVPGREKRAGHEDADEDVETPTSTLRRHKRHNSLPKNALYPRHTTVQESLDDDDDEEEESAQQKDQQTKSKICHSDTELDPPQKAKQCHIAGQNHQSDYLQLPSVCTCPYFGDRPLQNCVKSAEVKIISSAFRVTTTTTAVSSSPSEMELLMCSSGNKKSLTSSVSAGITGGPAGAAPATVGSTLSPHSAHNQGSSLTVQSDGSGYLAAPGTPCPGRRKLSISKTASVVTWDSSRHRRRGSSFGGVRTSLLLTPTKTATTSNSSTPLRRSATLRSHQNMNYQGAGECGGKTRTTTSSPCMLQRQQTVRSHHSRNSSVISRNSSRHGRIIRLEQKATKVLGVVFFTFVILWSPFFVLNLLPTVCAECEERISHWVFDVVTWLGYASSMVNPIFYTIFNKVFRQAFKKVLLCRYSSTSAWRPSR
# ASSAY_PROCEDURE: Ca2+ fluorimetry (Fluo-4), antagonists on serotonin-stimulated Dm5-HT2B-expressing HEK 293 cells
# Format: cell-based
# EXPERIMENTAL_CONTEXT: relative efficacy; signal with 10^-7 M serotonin = 100%
# Method: The ability of the Dm5-HT2B-HA receptor (hereafter referred to as Dm5-HT2B) to activate Gq proteins was assessed by monitoring changes in [Ca^2+]i with the Ca^2+-sensitive fluorescent dye Fluo-4 (Invitrogen). […] Plates were transferred into a fluorescence reader (FLUOstar Galaxy/Optima; BMG Labtech, Offenburg, Germany) to monitor Fluo-4 fluorescence. The excitation wavelength was 485 nm, and fluorescence emission was detected at 520 nm. […] The changes in Fluo-4 fluorescence were recorded automatically. […]
MEASURED_QUANTITY: Maximal inhibition
Form entry: enter the amount, then its unit.

These recorded examples may help you get a feel for the data.
COMPOUND	MEASURED_QUANTITY	RESULT
CCN(CC)CCNC(=O)c1cc(Cl)c(N)cc1OC [Metoclopramide, metoclopramide]	Maximal inhibition	60%
O=C(CCCN1CCC2(CC1)C(=O)NCN2c1ccccc1)c1ccc(F)cc1 [Spiperone, spiperone]	Maximal inhibition	25%
CSc1ccc2c(c1)C(N1CCN(C)CC1)Cc1ccccc1S2 (stereo not shown) [Metitepine, metitepine]	Maximal inhibition	35%

// next entry
Query: Fill in the blank: the reported Maximal inhibition of COc1cc2nc(N3CCN(C(=O)c4ccco4)CC3)nc(N)c2cc1OC [Prazosin, prazosin] is ____.
Reply: 50%
